Test system: MDA-MB-435
assay overview: NCI tumour cell line growth inhibition, 48 h; in the data active = GI50 below about 0.43 µM; inactive = the rest
Returns: one label drawn from active, inactive

What is the recorded call for this molecule in the test? CCN1C(=O)N(c2c(F)c(OC)cc(OC)c2F)Cc2cnc3[nH]c(CN4CCOCC4)cc3c21 inactive

What is the recorded call for this molecule in the test? O=Nc1c(-c2cccc([N+](=O)[O-])c2)nc2ncccn12 inactive

What is the recorded call for this molecule in the test? N#Cc1c2ccccc2c2nnc3cc(Cl)c(Cl)cc3n12 inactive

What is the recorded call for this molecule in the test? NS(=O)(=O)c1ccc(-n2nc(-c3ccc(Cl)cc3)cc2C2=CC(=O)C=CC2=O)cc1 inactive

What is the recorded call for this molecule in the test? COc1cccc2c1C(=O)c1c(O)c3c(c(O)c1C2=O)C[C@@](O)(C(C)=O)C[C@@H]3OC1CC(N)C(O)C(C)O1 (stereo partly drawn) active

What is the recorded call for this molecule in the test? COc1ccc2c(CNCCCCO)cc3cc4c(cc3c2c1)OCO4 inactive

What is the recorded call for this molecule in the test? O=C1NC(=NCCc2ccccc2Cl)S/C1=C\c1ccc2ncccc2c1 inactive

What is the recorded call for this molecule in the test? O=Cc1ccc(C(F)(F)F)cc1.[C-]#[O+].[C-]#[O+].[C-]#[O+].[Cr] inactive
